- target entity: PI3Kδ (p110δ/p85α) (Homo sapiens (Human))
- assay text: PI3Kδ scintillation proximity assay (Example A3)
- condition set: 20 μM ATP, 20 μM PIP2, 4 nM PI3Kδ; read-out: PI3Kδ SPA IC50
pIC50: −log10 of the molar value.
Quick reference: pIC50 of the listed items.

Here is how some molecules turned out for pIC50.
# molecule, target entity, pIC50
records = [
    ("CCOc1c(C(C)n2nc(-c3ccn(C)n3)c3c(N)ncnc32)cc(Cl)c(C)c1-c1ccc(C(=O)N(C)C)nc1 (stereo not drawn) [Example 50, bis(trifluoroacetate)]", "PI3Kδ (p110δ/p85α) (Homo sapiens (Human))", "≥ 8.00"),
    ("CCOc1c(C(C)n2nc(-c3cnc(N)nc3)c3c(N)ncnc32)cc(Cl)c(C)c1-c1ccc(C(=O)N(C)C)nc1 (racemic) [Example 58, tris(trifluoroacetate)]", "PI3Kδ (p110δ/p85α) (Homo sapiens (Human))", "≥ 8.00"),
    ("CCOc1c(C(C)n2nc(C)c3c(N)ncnc32)cc(C)c(C#N)c1C1CN(CCO)C1 (single isomer, unassigned)", "PI3Kδ (p110δ/p85α) (Homo sapiens (Human))", "≥ 8.00"),
    ("COc1c(C(C)n2nc(C)c3c(N)ncnc32)cc(Cl)c(C)c1C1CNC(=O)CO1 (single isomer, unassigned) [324 (2nd peak)]", "PI3Kδ (p110δ/p85α) (Homo sapiens (Human))", "≥ 8.00"),
]

Now examine the next entry.
## Input Look up pIC50 with PI3Kδ (p110δ/p85α) (Homo sapiens (Human)) for this molecule: CCOc1c(C(C)n2nc(C)c3c(N)ncnc32)cc(Cl)c(C#N)c1C1CN(C(=O)N(C)C)C1 (single isomer, unassigned)
## Output ≥ 8.00

====

- target entity: PI3Kδ (p110δ/p85α) (Homo sapiens (Human), UniProt O00329)
- Sequence (O00329 whole entry): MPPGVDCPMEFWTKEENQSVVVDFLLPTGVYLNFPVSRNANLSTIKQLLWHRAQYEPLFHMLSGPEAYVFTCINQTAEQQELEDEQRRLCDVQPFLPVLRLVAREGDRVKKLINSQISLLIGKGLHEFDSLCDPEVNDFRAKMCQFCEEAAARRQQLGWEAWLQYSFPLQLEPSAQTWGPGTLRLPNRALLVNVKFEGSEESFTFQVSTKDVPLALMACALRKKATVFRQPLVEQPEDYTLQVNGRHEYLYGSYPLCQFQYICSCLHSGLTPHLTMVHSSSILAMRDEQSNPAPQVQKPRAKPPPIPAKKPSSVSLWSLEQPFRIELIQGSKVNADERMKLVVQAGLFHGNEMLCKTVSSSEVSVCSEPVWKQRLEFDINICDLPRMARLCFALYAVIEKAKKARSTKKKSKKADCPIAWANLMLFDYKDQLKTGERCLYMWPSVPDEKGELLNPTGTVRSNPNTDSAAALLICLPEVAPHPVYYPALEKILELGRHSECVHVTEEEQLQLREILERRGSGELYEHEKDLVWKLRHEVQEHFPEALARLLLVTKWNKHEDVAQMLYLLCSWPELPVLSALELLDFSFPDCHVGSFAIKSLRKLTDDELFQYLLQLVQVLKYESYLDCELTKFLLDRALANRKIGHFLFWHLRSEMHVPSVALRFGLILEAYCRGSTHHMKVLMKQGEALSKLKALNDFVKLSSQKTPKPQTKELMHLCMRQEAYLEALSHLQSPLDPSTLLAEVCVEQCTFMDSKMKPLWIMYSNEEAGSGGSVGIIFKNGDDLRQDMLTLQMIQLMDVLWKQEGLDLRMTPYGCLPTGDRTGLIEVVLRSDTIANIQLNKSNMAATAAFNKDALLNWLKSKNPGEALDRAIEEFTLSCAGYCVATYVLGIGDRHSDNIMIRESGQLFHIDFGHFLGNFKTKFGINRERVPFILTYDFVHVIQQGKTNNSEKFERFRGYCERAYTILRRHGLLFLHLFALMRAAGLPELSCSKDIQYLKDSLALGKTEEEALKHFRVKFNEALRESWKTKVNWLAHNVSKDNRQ
- Sequence (P27986 whole entry partner): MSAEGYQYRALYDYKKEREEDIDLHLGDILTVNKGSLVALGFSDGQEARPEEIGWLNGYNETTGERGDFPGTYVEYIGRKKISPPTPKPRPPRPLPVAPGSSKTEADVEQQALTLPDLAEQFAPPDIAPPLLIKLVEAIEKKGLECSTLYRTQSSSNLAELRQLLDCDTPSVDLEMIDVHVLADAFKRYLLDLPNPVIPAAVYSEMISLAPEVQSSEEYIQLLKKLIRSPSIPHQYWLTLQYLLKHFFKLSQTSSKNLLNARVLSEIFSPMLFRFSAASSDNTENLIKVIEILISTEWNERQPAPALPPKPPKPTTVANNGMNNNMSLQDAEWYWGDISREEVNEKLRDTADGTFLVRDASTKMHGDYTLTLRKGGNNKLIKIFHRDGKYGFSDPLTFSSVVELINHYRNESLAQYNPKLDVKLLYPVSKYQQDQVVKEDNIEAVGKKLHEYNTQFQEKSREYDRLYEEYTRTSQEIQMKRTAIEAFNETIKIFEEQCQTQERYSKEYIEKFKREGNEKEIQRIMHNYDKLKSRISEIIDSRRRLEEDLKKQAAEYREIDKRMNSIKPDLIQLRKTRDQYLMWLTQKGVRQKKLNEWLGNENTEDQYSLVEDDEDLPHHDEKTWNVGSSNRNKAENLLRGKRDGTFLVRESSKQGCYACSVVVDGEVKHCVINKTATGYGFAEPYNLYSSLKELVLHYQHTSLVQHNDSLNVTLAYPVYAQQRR
- assay text: PI3Kδ scintillation proximity assay (Example A3)
- condition set: 20 μM ATP, 20 μM PIP2, 4 nM PI3Kδ; read-out: PI3Kδ SPA IC50
outcome measure: IC50

Record excerpt, results attached:
# compound, result
rows = [
    ("COc1c(C(C)n2nc(C)c3c(N)ncnc32)cc(Cl)c(C#N)c1C1CN(C2CCC2)C1 (single isomer, unassigned)", "≤ 10 nM"),
    ("CCOc1c(C(C)n2nc(C)c3c(N)ncnc32)cc(Cl)c(F)c1C1CN(CC(N)=O)C1 (stereo not shown)", "≤ 10 nM"),
    ("CCOc1c(C(C)n2nc(C)c3c(N)ncnc32)cc(Cl)c(C#N)c1C1CN(C(C)C)C1 (stereo not shown)", "≤ 10 nM"),
]

## Input # query: IC50 of entry CCOc1c(C(C)n2nc(C)c3c(N)ncnc32)cc(Cl)c(C)c1-c1cnn(CC(=O)NC)c1 (single isomer, unassigned)
## Output ≤ 10 nM

====

- target entity: PI3Kδ (p110δ/p85α) (Homo sapiens (Human), UniProt O00329)
- assay text: PI3Kδ scintillation proximity assay (Example A3)
- condition set: 20 μM ATP, 20 μM PIP2, 4 nM PI3Kδ; read-out: PI3Kδ SPA IC50
Structures can show the parent of a compound that is named as a salt.
outcome measure: IC50

Consider the reported IC50 for these molecules:
# molecule, IC50
records = [
    ("CCOc1c(C(C)n2nc(C)c3c(N)ncnc32)cc(Cl)c(C#N)c1-c1cncc(C(=O)N(C)C)c1 (single isomer, unassigned)", "≤ 10 nM"),
    ("CCOc1c(C(C)n2nc(C3CC3)c3c(N)ncnc32)cc(Cl)c(C)c1-c1ccc(C(=O)N(C)C)nc1 (racemic) [Example 53, bis(trifluoroacetate)]", "≤ 10 nM"),
    ("CCOc1c(C(C)n2nc(C)c3c(N)ncnc32)cc(Cl)c(C#N)c1C1CNC(=O)O1 (single isomer, unassigned) [323 (4th peak)]", "≤ 10 nM"),
]

## Input Lab request: please report IC50 under test system PI3Kδ (p110δ/p85α) (Homo sapiens (Human), UniProt O00329) for CCOc1c(C(C)n2nc(-c3cc[nH]n3)c3c(N)ncnc32)cc(Cl)c(C)c1-c1ccc(C(=O)N(C)C)nc1 (racemic) [Example 51, bis(trifluoroacetate)]
## Output ≤ 10 nM

## Input Try the molecule COc1c(C(C)n2nc(C)c3c(N)ncnc32)cc(Cl)c(C#N)c1C1CN(C(=O)OC(C)C)C1 (single isomer, unassigned)
## Output ≤ 10 nM

## Input Also COc1c(C(C)n2nc(C)c3c(N)ncnc32)cc(Cl)c(C)c1-c1ccc(C(=O)N(C)C)c(F)c1 (single isomer, unassigned) [Example 21, trifluoroacetate] , if possible.
## Output ≤ 10 nM
